molecular target: HLA-DR(α1*0101,α1*1301) (human); experiment: reference IC50 of the tracer peptide in the HLA class II competition assay
No end group written: not given here.
readoutKind: pIC50
# reply with the number alone; pIC50 is -log10 of concentration in mol/L

I'd like to know its pIC50. The binder in question is TERVRLVTRHIYNREE (also: biotinylated when used as tracer) [B1 (21-36)] 6.56
